# assayTarget: Cannabinoid 1 (Homo sapiens, UniProt P21554)
# Sequence (P21554 whole entry, the tested form may be a part): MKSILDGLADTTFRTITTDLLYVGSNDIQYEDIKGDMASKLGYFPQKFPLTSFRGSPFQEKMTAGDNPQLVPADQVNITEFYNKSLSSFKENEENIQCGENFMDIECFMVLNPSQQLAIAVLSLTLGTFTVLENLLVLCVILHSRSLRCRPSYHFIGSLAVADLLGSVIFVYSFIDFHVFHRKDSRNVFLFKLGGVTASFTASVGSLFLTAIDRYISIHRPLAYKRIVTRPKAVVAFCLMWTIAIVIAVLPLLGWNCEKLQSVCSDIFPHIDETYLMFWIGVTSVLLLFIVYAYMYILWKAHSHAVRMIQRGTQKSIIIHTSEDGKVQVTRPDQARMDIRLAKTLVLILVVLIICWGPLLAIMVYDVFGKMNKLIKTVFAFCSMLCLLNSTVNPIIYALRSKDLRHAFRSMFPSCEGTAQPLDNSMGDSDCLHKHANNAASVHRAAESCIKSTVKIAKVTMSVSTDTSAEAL
# measurementProtocol: Beta arrestin enzyme fragment complementation assay, cannabinoid 1
# appliedConditions: read-out: Cannabinoid 1, Agonist EC50
propertyLabel: EC50

Cc1cc(Oc2nccc3occc23)ccc1-c1c(C)ncc2nccn12: > 10 µM
Cc1cc(Oc2nccc3occc23)ccc1-c1c(C)ncnc1C: > 10 µM
Cc1cc(Oc2nccc3occc23)ccc1-n1c(C)nc2cnccc21: > 10 µM

API: the following record is the query input.
Input: I am curious: what EC50 value has been reported for Cc1cc(Oc2nccc3occc23)ccc1-c1c(C)cnnc1C ?
Output: > 10 µM

----------
# assayTarget: Cannabinoid 1 (Homo sapiens)
# Construct: expressed in transfected cells
# measurementProtocol: Beta arrestin enzyme fragment complementation assay, cannabinoid 1
# Format: cell-based
# appliedConditions: vs EC80 of agonist; read-out: Cannabinoid 1, Antagonist IC50
Recorded pIC50 by entry
pIC50 (log units): -log10 of the concentration in mol/L.

Cc1cc(Oc2nccc3occc23)ccc1-c1c(C)cnnc1C: 5.18

Turning to the following compound.
Input: Fill in: pIC50 of Cc1cc(Oc2nccc3occc23)ccc1-c1c(C)ncc2nccn12 is ___
Output: 5.68
